# Test system: HL-60
# protocol: Antiproliferative activity against human HL-60 cells assessed as inhibition of cell growth incubated for 72 hrs by MTT assay
# Assay type: functional, cell-based
# condition: HL-60, 72 h
pIC50: −log10 of the molar value.
observable: pIC50

Assay HL-60, sample `CC(=O)O[C@H](COC(=O)c1ccccc1)[C@H]1OC(=O)C=C[C@H]1OC(=O)/C=C/c1ccc(F)cc1` , pIC50 read: 4.79

A = CC(=O)O[C@H](COC(=O)c1ccccc1)[C@H]1OC(=O)C=C[C@H]1O[Si](C)(C)C(C)(C)C
B = CC(=O)O[C@H](COC(=O)c1ccccc1)[C@H]1OC(=O)C=C[C@H]1OC(=O)/C=C/c1ccc([N+](=O)[O-])cc1
C = COc1cccc(C(=O)O[C@@H]2C=CC(=O)O[C@@H]2[C@@H](COC(=O)c2ccccc2)OC(C)=O)c1
[Q] Please rank these compounds by pIC50 in descending order. Return value: ordered labels per request.
[A] C, A, B
(C: 5.77, A: 4.93, B: 4.61)

###

# System: HL-60
# protocol: Antiproliferative activity against human HL-60 cells assessed as inhibition of cell growth incubated for 72 hrs by MTT assay
# Format: functional, cell-based
# condition: HL-60, 72 h
observable: IC50 (µM)

Example entries and their recorded answers appear below.
# IC50 of `CC(=O)OC[C@@H](O)[C@H]1OC(=O)C=C[C@H]1O` = 9.62

Input `CC(=O)O[C@H](COC(=O)c1ccccc1)[C@H]1OC(=O)C=C[C@H]1O[Si](c1ccccc1)(c1ccccc1)C(C)(C)C` . Output IC50: 5.64

Recorded IC50 (compound `CC(=O)O[C@H](COC(=O)c1ccccc1)[C@H]1OC(=O)C=C[C@H]1OS(C)(=O)=O` ): 3.63

Form: compound = `CC(=O)OC[C@@H](OC(C)=O)[C@H]1OC(=O)C=C[C@H]1OCc1ccccc1` ; IC50 = 1.39

Given item `CC(=O)O[C@H](COC(=O)c1ccccc1)[C@H]1OC(=O)C=C[C@H]1OS(=O)(=O)c1ccc(C)cc1` , the value recorded as its IC50 is 20.9

According to the records, this compound `O=C1C=C[C@@H](O)[C@@H]([C@@H](O)COC(=O)c2ccccc2)O1` displays IC50 of 12.3

a = CC1(C)O[C@H]2O[C@@H]3C=CC(=O)O[C@@H]3[C@H]2O1
b = CC(=O)O[C@H](COC(=O)c1ccccc1)[C@H]1OC(=O)C=C[C@H]1OC(=O)C(c1ccccc1)c1ccccc1
[Q] // compare measured IC50, left a , right b , return larger Please identify the chosen entry by its label.
[A] a
(a: 22.3 µM, b: 4.64 µM)

###

# protocol: Cytotoxicity against human MRC5 cells assessed as inhibition of cell growth incubated for 72 hrs by MTT assay
# Format: toxicity, cell-based
# condition: human, MRC5 cells
observable: IC50 at 72 h

Some solved cases for reference:
Please fill in: IC50 at 72 h reported for `CC(=O)O[C@H](COC(=O)c1ccccc1)[C@H]1OC(=O)C=C[C@H]1OS(=O)(=O)c1ccc(C)cc1` = > 100 µM

Reported IC50 at 72 h for `CC(=O)OC[C@@H](OC(C)=O)[C@H]1OC(=O)C=C[C@H]1OC(=O)c1ccccc1` was > 100 µM

API: the following record is the query input.
Lab note: measured IC50 at 72 h of `CC(=O)OC[C@@H](O)[C@H]1OC(=O)C=C[C@H]1O` was > 100 µM

###

# Test system: MRC5
# protocol: Cytotoxicity against human MRC5 cells assessed as inhibition of cell growth incubated for 72 hrs by MTT assay
# Type: toxicity, cell-based
# condition: mrc5
observable: IC50

Entry `CC(=O)O[C@H](COC(=O)c1ccccc1)[C@H]1OC(=O)C=C[C@H]1OS(C)(=O)=O` , IC50 reported as > 100 µM

###

# System: MCF7
# protocol: Antiproliferative activity against estrogen receptor positive human MCF7 cells assessed as inhibition of cell growth incubated for 72 hrs by MTT assay
# Assay type: functional, cell-based
# condition: MCF7, 72 h
observable: IC50 (µM)

Item: `CC(=O)O[C@H](COC(=O)c1ccccc1)[C@H]1OC(=O)C=C[C@H]1O[Si](c1ccccc1)(c1ccccc1)C(C)(C)C` | IC50: 9.39

I = COc1ccc(/C=C/C(=O)O[C@@H]2C=CC(=O)O[C@@H]2[C@@H](COC(=O)c2ccccc2)OC(C)=O)cc1OC
II = CC(=O)O[C@H](COC(=O)c1ccccc1)[C@H]1OC(=O)C=C[C@H]1OC(=O)c1c(Cl)cc(Cl)cc1Cl
III = CC(=O)O[C@H](COC(=O)c1ccccc1)[C@H]1OC(=O)C=C[C@H]1OS(C)(=O)=O
IV = COc1ccc(/C=C/C(=O)O[C@@H]2C=CC(=O)O[C@@H]2[C@@H](COC(=O)c2ccccc2)OC(C)=O)cc1
[Q] // ascending sort on recorded IC50 Use the labels to give the requested order.
[A] III, I, IV, II
(III: 3.26 µM, I: 6.35 µM, IV: 12.8 µM, II: 28.4 µM)

###

# System: MCF7
# protocol: Antiproliferative activity against estrogen receptor positive human MCF7 cells assessed as inhibition of cell growth incubated for 72 hrs by MTT assay
# Assay type: functional, cell-based
# condition: MCF7, 72 h
observable: IC50 (µM)

a = CC(=O)OC[C@@H](OC(C)=O)[C@H]1OC(=O)C=C[C@H]1OC(=O)c1ccccc1
b = CC(=O)O[C@H](COC(=O)c1ccccc1)[C@H]1OC(=O)C=C[C@H]1OC(=O)/C=C/c1ccc([N+](=O)[O-])cc1
[Q] Which one would you say has the larger IC50 value: a , or b ? Give the chosen item's label as your response.
[A] b
(b: 21.3 µM, a: 5.01 µM)

###

# Test system: MCF7
# protocol: Antiproliferative activity against estrogen receptor positive human MCF7 cells assessed as inhibition of cell growth incubated for 72 hrs by MTT assay
# Format: functional, cell-based
# condition: MCF7, 72 h
pIC50: −log10 of the molar value.
observable: pIC50

// `CC(=O)O[C@@H](COC(=O)c1ccccc1)[C@H]1OC(=O)C=C[C@H]1OC(C)=O` : pIC50 value = 4.82

Entry `O=C1C=C[C@@H](O)[C@@H]([C@@H](O)COC(=O)c2ccccc2)O1` — recorded pIC50 = 4.98

For `COc1cccc(C(=O)O[C@@H]2C=CC(=O)O[C@@H]2[C@@H](COC(=O)c2ccccc2)OC(C)=O)c1` the compound record lists pIC50 as 5.06

a = O=C1C=C[C@@H](OCc2ccccc2)[C@@H]([C@@H](COC(=O)c2ccccc2)OCc2ccccc2)O1
b = CC(=O)O[C@H](COC(=O)c1ccccc1)[C@H]1OC(=O)C=C[C@H]1OC(=O)/C=C/c1ccccc1
[Q] Quick check, higher pIC50 between a and b ? Write down the label of the entry you select.
[A] a
(a: 5.23, b: 4.65)

a = CC(=O)O[C@H](COC(=O)c1ccccc1)[C@H]1OC(=O)C=C[C@H]1O[Si](C)(C)C(C)(C)C
b = CC(=O)OC[C@@H](OC(C)=O)[C@H]1OC(=O)C=C[C@H]1OCc1ccccc1
[Q] Which value of pIC50 is smaller, the one for a or the one for b ? Your choice should be expressed through its label.
[A] b
(b: 4.81, a: 5.38)
